B1: Far upstream element-binding protein 3, residues 75 to 150; numbered along this chain, Q96I24 (parent)
chain: RTVITEEFKVPDKMVGFIIGRGGEQISRIQAESGCKIQIASESSGIPERPCVLTGTPESIEQAKRLLGQIVDRCRN

Variants of: B1
Assay: abundance fitness (aPCA) (normalised: wild type 0, dead -1); higher = more abundant; growth selection in yeast, the domain comes from the species named
Details: Homo sapiens
property label: abundance fitness
Reply briefly: the number, and no unit.

Query: Input RTVITEEFKVPDKMVGFIIGRGGEQISRIQAESGCKWQIASESSGIPERPCVLTGTPESIEQAKRLLGQIVDRCRN [I37W] , output reported abundance fitness.
Response: -0.955

Query: Input RTVITEEFKVPDKMVGFIIGRGGEQISRIQAESYCKIQIASESSGIPERPCVLTGTPESIEQAKRLLGQIVDRCRN [G34Y] , output reported abundance fitness.
Response: -0.361

Query: Input RTVHTEEFKVPDKMVGFIIGRGGEQISRIQAESGCKIQIASESSGIPERPCVLTGTPESIEQAKRLLGQIVDRCRN [I4H] , output reported abundance fitness.
Response: -0.146

Query: Input RTVITEEFKVPDKMVGFIIGRGNEQISRIQAESGCKIQIASESSGIPERPCVLTGTPESIEQAKRLLGQIVDRCRN [G23N] , output reported abundance fitness.
Response: -0.058

Query: Input RTVITEEFKVPDKMVGFIIGRGGEQISRIQAESGCKIQIASESSGIPERPCVLTGTPESIEQAKRLLGQIRDRCRN [V71R] , output reported abundance fitness.
Response: -0.151

Query: Input RTVITEEFKVPDKMVGFIIGRGGEQISRIQAESGCKIQIASESSGIPERPCVLTGTPESIEQAKRLLGQTVDRCRN [I70T] , output reported abundance fitness.
Response: 0.014

Query: Input RTVITEEFKVPDKMVGFIIGRGGEQISRIQAESGCKIQIASESSGIPERPCVLHGTPESIEQAKRLLGQIVDRCRN [T54H] , output reported abundance fitness.
Response: -0.01

Query: Input RTVITEEFKVPDKMVGFIIGRGGEQISRIQAESGCKIQIASESSGIPERPCVLTGTPESIEVAKRLLGQIVDRCRN [Q62V] , output reported abundance fitness.
Response: -0.008

Query: Input RTVITEEFKVPDKMVGFIIGRGGEQISRIQAESGCKIQIASESSGIAERPCVLTGTPESIEQAKRLLGQIVDRCRN [P47A] , output reported abundance fitness.
Response: -0.03

Query: Input RTVITEEFKVPDKMVGFIIGRGGEQISRIQAESGCKIQIASESSGIPERPCVLTGTPESIEQAKYLLGQIVDRCRN [R65Y] , output reported abundance fitness.
Response: -0.046

Query: Input RTVITEEFKVPQKMVGFIIGRGGEQISRIQAESGCKIQIASESSGIPERPCVLTGTPESIEQAKRLLGQIVDRCRN [D12Q] , output reported abundance fitness.
Response: -0.155

Query: Input RTVITEEFKVPDKMVGFIIGRGGEQISRIQAESGCKIQIASESSGIPERPCVLTGTPESIEQAKRLLGQIVWRCRN [D72W] , output reported abundance fitness.
Response: -0.108

Query: Input RCVITEEFKVPDKMVGFIIGRGGEQISRIQAESGCKIQIASESSGIPERPCVLTGTPESIEQAKRLLGQIVDRCRN [T2C] , output reported abundance fitness.
Response: -0.114

Query: Input RTVITEEFKVPDKMVGFIIGRGGEQISRIQAESGCKIQIASESSGIPERPCVLTGTPESIEMAKRLLGQIVDRCRN [Q62M] , output reported abundance fitness.
Response: -0.023

Query: Input RTVITEEFKVPDKMVGFIIGRGGEQISRIQAESGCKIQIASESSGIPERPCVLTGTPESIELAKRLLGQIVDRCRN [Q62L] , output reported abundance fitness.
Response: -0.044

Query: Input RTVITEEFKVPDKMVGFIIGRGGEQISRIQAESGCKIQIASESSGIPERPCVLTGTPESIEQAKRLLGQIVDNCRN [R73N] , output reported abundance fitness.
Response: 0.037

Query: Input RTVITEEFKVPDKMVGFIIGRGGEQISRIQAESGCKIQIASESSGIIERPCVLTGTPESIEQAKRLLGQIVDRCRN [P47I] , output reported abundance fitness.
Response: -0.021

Query: Input RTVITEEFKVPDKMVGFIIGRGGGQISRIQAESGCKIQIASESSGIPERPCVLTGTPESIEQAKRLLGQIVDRCRN [E24G] , output reported abundance fitness.
Response: -0.045

Query: Input RTVITEEFKVPDKMVGFIIGRGGEQISRIQAESGCKIQIASESSGIPERPCVLLGTPESIEQAKRLLGQIVDRCRN [T54L] , output reported abundance fitness.
Response: -0.129

Query: Input RTVITEEFKVPDKMVGFIIGRGGEQISRIQAESGCKIQIASESSGIPERPCVLTGTPENIEQAKRLLGQIVDRCRN [S59N] , output reported abundance fitness.
Response: -0.013

Query: Input RTVITEEFKVPDKMVGFIIGRGGEQISRIQAESGCKIQIASESSGIPERPCVLTGTPESIEQAKRLFGQIVDRCRN [L67F] , output reported abundance fitness.
Response: -0.367

Query: Input RTVITEEFKVPDKMVGFIIGRGGEQISRVQAESGCKIQIASESSGIPERPCVLTGTPESIEQAKRLLGQIVDRCRN [I29V] , output reported abundance fitness.
Response: -0.049

Source listed as the Human Domainome abundance scans (Beltran et al. 2025).
